Biological target: T1, human GLP-2R (glucagon-like peptide-2 receptor) (human, UniProt O95838 1-553)
T1 sequence (looked up): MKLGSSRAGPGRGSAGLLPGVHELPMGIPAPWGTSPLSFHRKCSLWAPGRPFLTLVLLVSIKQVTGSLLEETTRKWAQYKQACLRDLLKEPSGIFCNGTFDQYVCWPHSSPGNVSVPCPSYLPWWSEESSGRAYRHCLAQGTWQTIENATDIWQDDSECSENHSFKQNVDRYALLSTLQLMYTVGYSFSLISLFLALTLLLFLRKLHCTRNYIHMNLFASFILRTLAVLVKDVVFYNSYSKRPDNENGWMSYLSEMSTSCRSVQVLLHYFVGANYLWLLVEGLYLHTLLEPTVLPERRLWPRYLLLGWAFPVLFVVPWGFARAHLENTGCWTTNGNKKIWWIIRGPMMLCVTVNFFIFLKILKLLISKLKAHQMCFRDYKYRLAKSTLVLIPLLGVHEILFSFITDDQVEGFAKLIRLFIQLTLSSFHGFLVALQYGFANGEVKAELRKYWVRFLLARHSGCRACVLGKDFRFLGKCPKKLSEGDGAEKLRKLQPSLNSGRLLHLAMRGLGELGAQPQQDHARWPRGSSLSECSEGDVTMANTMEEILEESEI
Test: cell-based or functional assay
*1 amine or outer side, *2 acyl side, *3 side chain or, on linkers, in order; H or OH if unused. Where no end group is shown, it is not given here. Side-chain parts run from the residue outwards. [ ]: non-standard residue; d: D form. The star is where a group is joined. C18 diacid = O=C(O)CCCCCCCCCCCCCCCCC(=O)*; γGlu = O=C(O)[C@H](CCC(=O)[*:2])N[*:1]; Decanoyl = CCCCCCCCCC(=O)*; AEEA = NCCOCCOCC(=O)O; Aib = CC(C)(N)C(=O)O
OBSERVED_PROPERTY: logEC50 GLP-2R
Numbers only.

Consider the reported logEC50 GLP-2R for these binders:
HADGTFTSDYSTILDK([AEEA-AEEA-γGlu-C18 diacid])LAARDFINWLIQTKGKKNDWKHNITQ-OH [Compound 21] | 9.2
H[Aib]EGTFISDYSTILDNLAARDFINWLIQTKITK(Decanoyl)-NH2 [Compound 11] | 7.6
H[Aib]DGTFISDYSIILDNLAARDFINWLIQTKITK(Decanoyl)-NH2 [Compound 10] | 8
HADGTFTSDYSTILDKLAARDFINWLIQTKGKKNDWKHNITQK([AEEA-AEEA-γGlu-C18 diacid])-OH [Compound 26] | 8.3
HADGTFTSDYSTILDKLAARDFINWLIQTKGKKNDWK([AEEA-AEEA-γGlu-C18 diacid])HNITQ-OH [Compound 25] | 8.1

Please report logEC50 GLP-2R for every entry that follows.
1. HADGTFTSDYST[Aib]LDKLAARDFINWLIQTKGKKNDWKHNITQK([AEEA-AEEA-γGlu-C18 diacid])-OH [Compound 27]
2. H[Aib]DGTFISDYSTILDALAARDFINWLIQTKITK([AEEA-AEEA-γGlu-C18 diacid])-OH [Compound 28]
3. HADGTFTSDYSIILDK([AEEA-AEEA-γGlu-C18 diacid])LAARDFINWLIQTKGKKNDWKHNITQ-OH [Compound 20]

Completion:
1. 8.5
2. 8.7
3. 9.5

Please report logEC50 GLP-2R for every entry that follows.
1. HADGTFTSDYSTILDKK([AEEA-AEEA-γGlu-C18 diacid])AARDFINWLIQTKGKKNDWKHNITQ-OH [Compound 23]
2. HADGTFTSDYST[Aib]LDK([AEEA-AEEA-γGlu-C18 diacid])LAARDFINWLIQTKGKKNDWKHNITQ-OH [Compound 22]
3. HXDGTFISDYSTILDNLAARDFIEWLIQTKITK (Aib at position 2; K33 acylated with C10, K(C10); C-terminal amide (-NH2)) [Compound 9]

Completion:
1. 8.5
2. 9.3
3. 8

All figures here come from patent US20250304644A1.
